The reported numbers originate from patent US11608341B2.

- system tested: C5AR1 (Homo sapiens, UniProt P21730)
- Sequence (P21730 whole entry): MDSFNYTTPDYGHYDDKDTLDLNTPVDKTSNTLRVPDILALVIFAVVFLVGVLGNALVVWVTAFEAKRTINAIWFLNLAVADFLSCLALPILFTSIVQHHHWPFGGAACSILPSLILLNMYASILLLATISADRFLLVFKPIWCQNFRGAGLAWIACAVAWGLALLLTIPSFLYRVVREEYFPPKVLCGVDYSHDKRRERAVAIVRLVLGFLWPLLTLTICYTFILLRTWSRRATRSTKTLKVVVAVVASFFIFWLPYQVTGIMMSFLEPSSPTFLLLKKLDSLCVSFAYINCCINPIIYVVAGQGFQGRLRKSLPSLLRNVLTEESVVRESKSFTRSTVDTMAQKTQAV
- procedure text: In vitro assay: antagonism of C5a-induced beta-arrestin recruitment (PathHunter) in CHO-K1 C5AR1 beta-arrestin cell line
- test conditions: antagonistic activity, 1-10 nM C5a agonist, geometric mean where several measurements, read-out: C5aR IC50
- Protocol: 5 μl Antagonist at 6-fold end concentration or DMSO control is added to assay medium and subsequently 5 μl 1-10 nM C5a agonist at 6 fold end concentration. Cells are centrifuged for 1 min at 1000 rpm and incubated for 1.5 hour in at 37° C. […] Plates are centrifuged for 1 min at 1000 rpm and incubated for 45 minutes at RT before being measured on a Fluostar Optima, BMG Labtech. IC50 values are calculated from a serial dilution range of antagonist using inhouse software and given in nmol/l. […]
measure: log10 IC50 (log10 of the value in nM)

compound: Cc1cccc(F)c1N1CCC(N2C(=O)N(Cc3ccccc3C3CC3)c3cn(C4CCCCO4)nc3C2C)CC1 (stereo not drawn) [Example 268]
log10 IC50: 1.86
--
compound: CC1c2nn(C3CC3)cc2N(Cc2ccccc2C(F)(F)F)C(=O)N1C1CCN(c2c(F)cccc2Cl)CC1 (single isomer, unassigned) [Example 327]
log10 IC50: 2.72
--
compound: Cc1cccc(F)c1N1CCC(N2C(=O)N(Cc3ncccc3C(F)(F)F)c3nn(C)cc3C2C)CC1 (single isomer, unassigned) [Example 354]
log10 IC50: 0.70
--
compound: COc1nccc(C(F)F)c1N1CCC(N2C(=O)N(Cc3ccccc3C(F)(F)F)c3nn(C4CC4)cc3C2C)CC1 (single isomer, unassigned) [Example 359]
log10 IC50: 2.27
--
compound: CCOC(=O)N1CC[C@H]1Cn1cc2c(n1)N(Cc1ccccc1C(F)(F)F)C(=O)N(C1CCN(c3c(C)cccc3F)CC1)C2 [Example 124]
log10 IC50: 1.11
--
compound: COC(=O)N1CC[C@H]1Cn1cc2c(n1)N(Cc1ccccc1C(F)(F)F)C(=O)N(C1CCN(c3c(C)cccc3F)CC1)C2 [Example 123]
log10 IC50: 1.28

====

- system tested: C5AR1 (Homo sapiens)
- procedure text: In vitro assay: antagonism of C5a-induced beta-arrestin recruitment (PathHunter) in CHO-K1 C5AR1 beta-arrestin cell line
- test conditions: antagonistic activity, 1-10 nM C5a agonist, geometric mean where several measurements, read-out: C5aR IC50

molecule: Cc1cccc(F)c1N1CCC(N2Cc3cn(CC(=O)N(C)C)nc3N(Cc3ccccc3C(F)(F)F)C2=O)CC1 [Example 30]
IC50 (nM): 95
//
molecule: Cc1cccc(F)c1N1CCC(N2Cc3nn(C(C)C)cc3N(Cc3ccccc3C(F)(F)F)C2=O)CC1 [Example 191]
IC50 (nM): 4
//
molecule: COC(=O)N1CC(n2cc3c(n2)N(Cc2ccccc2C(F)(F)F)C(=O)N(C2CCN(c4c(C)cccc4F)CC2)C3)C1 [Example 117]
IC50 (nM): 33
//
molecule: Cc1cccc(C)c1N1CCC(N2Cc3cn(C)nc3N(Cc3ccccc3C(F)(F)F)C2=O)C1 (single isomer, unassigned) [Example 58]
IC50 (nM): 238
//
molecule: Cn1cc2c(n1)N(Cc1ccccc1C1CC1)C(=O)N(C1CCN(c3c(F)cccc3OC(F)(F)F)CC1)C2 [Example 281]
IC50 (nM): 17
//
molecule: Cn1cc2c(n1)N(Cc1ccccc1C(F)(F)F)C(=O)N(C1CCN(c3c(F)cccc3Cl)CC1)C2 [Example 272]
IC50 (nM): 18
//
molecule: Cc1cccc(F)c1N1CCC(N2Cc3cn(CC4CC4)nc3N(Cc3ccccc3C(F)(F)F)C2=O)CC1 [Example 165]
IC50 (nM): 8
//
molecule: Cc1cccc(F)c1N1CCCC(N2Cc3cn(C)nc3N(Cc3ccccc3C(F)(F)F)C2=O)CC1 (single isomer, unassigned) [Example 225]
IC50 (nM): 34
//
molecule: Cc1cccc(F)c1N1CCC(N2Cc3cn(CCN4CCOCC4)nc3N(Cc3ccccc3C(F)(F)F)C2=O)CC1 [Example 64]
IC50 (nM): 21
//
molecule: Cc1cccc(F)c1N1CCC(N2Cc3cn(C4CN(CC(C)C)C4)nc3N(Cc3ccccc3C(F)(F)F)C2=O)CC1 [Example 104]
IC50 (nM): 146
//
molecule: CCOC(=O)N1CC(n2cc3c(n2)N(Cc2ccccc2C(F)(F)F)C(=O)N(C2CCN(c4c(C)cccc4F)CC2)C3)C1 [Example 126]
IC50 (nM): 15
//
molecule: Cc1ccnc(F)c1N1CCC(N2Cc3cn(C)nc3N(Cc3ccccc3C(F)(F)F)C2=O)CC1 [Example 52]
IC50 (nM): 72
//
molecule: Cc1cccc(F)c1N1CCC(N2Cc3cn(C[C@@H]4CC(F)(F)CN4C(=O)OC(C)(C)C)nc3N(Cc3ccccc3C(F)(F)F)C2=O)CC1 [Example 109]
IC50 (nM): 27
//
molecule: COC(=O)C(C)(C)n1cc2c(n1)N(Cc1ccccc1C(F)(F)F)C(=O)N(C1CCN(c3c(C)cccc3F)CC1)C2 [Example 27]
IC50 (nM): 17

====

- system tested: C5AR1 (Homo sapiens)
- Construct: host or cells: CHO-K1
- procedure text: In vitro assay: antagonism of C5a-induced beta-arrestin recruitment (PathHunter) in CHO-K1 C5AR1 beta-arrestin cell line
- Format: cell-based
- test conditions: antagonistic activity, 1-10 nM C5a agonist, geometric mean where several measurements, read-out: C5aR IC50
Documented IC50 across a set of molecules
measure: IC50 (nM)

molecule: CCc1cccc(F)c1N1CCC(N2Cc3cn(C)nc3N(Cc3ccccc3C(F)(F)F)C2=O)CC1 [Example 299]
numeric readout: 402
//
molecule: CCOC(Cn1cc2c(n1)N(Cc1ccccc1C(F)(F)F)C(=O)N(C1CCN(c3c(C)cccc3F)CC1)C2)OCC [Example 28]
numeric readout: 83
//
molecule: Cc1cccc(F)c1N1CCC(N2Cc3cn(C[C@H]4CCN4C(=O)OC(C)C)nc3N(Cc3ccccc3C(F)(F)F)C2=O)CC1 [Example 135]
numeric readout: 17
//
molecule: Cc1cccc(F)c1N1CCC(N2Cc3cn(C4CNC4=O)nc3N(Cc3ccccc3C(F)(F)F)C2=O)CC1 (stereo not drawn) [Example 157]
numeric readout: 17
//
molecule: Cc1cccc(F)c1N1CCC(N2Cc3cn(C)nc3N(C(C)c3ccccc3C(F)(F)F)C2=O)CC1 (single isomer, unassigned) [Example 246]
numeric readout: 21
//
molecule: Cc1cccc(F)c1N1CCC(N2Cc3cn(C(=O)OCC(C)C)nc3N(Cc3ccccc3C(F)(F)F)C2=O)CC1 [Example 148]
numeric readout: 341
//
molecule: COc1nccc(C)c1N1CCC(N2C(=O)N(Cc3ccccc3C3CC3)c3cn(C4CCCCO4)nc3C2C)CC1 (stereo not drawn) [Example 269]
numeric readout: 193
//
molecule: CC1c2cn(C)nc2N(Cc2ccccc2C(F)(F)F)C(=O)N1C1CCN(c2c(F)cccc2C(F)F)CC1 (single isomer, unassigned) [Example 315]
numeric readout: 362
//
molecule: Cc1cccc(F)c1N1CCC(N2C(=O)N(Cc3ccccc3C(F)(F)F)c3cn(C4CCCCO4)nc3C2C)CC1 (stereo not drawn) [Example 294]
numeric readout: 56
//
molecule: Cc1cccc(F)c1N1CCC(N2Cc3c[nH]nc3N(Cc3ncccc3C(F)(F)F)C2=O)CC1 [Example 193]
numeric readout: 14
//
molecule: Cc1cccc(F)c1N1CCC(N2Cc3cnn(CC4CC4)c3N(Cc3ccccc3C(F)(F)F)C2=O)CC1 [Example 210]
numeric readout: 46
//
molecule: CC(c1ccccc1C(F)(F)F)N1C(=O)N(C2CCN(c3c(F)cccc3F)CC2)Cc2cn(C)nc21 (single isomer, unassigned) [Example 290]
numeric readout: 351
//
molecule: CC1c2cn(C3CC3)nc2N(Cc2ccccc2C2CC2)C(=O)N1C1CCN(c2c(F)cccc2Cl)CC1 (single isomer, unassigned) [Example 338]
numeric readout: 110
//
molecule: Cc1cccc(F)c1N1CCC(N2Cc3cn(C4CN(CC(F)F)C4)nc3N(Cc3ccccc3C(F)(F)F)C2=O)CC1 [Example 106]
numeric readout: 24
//
molecule: Cc1cccc(F)c1N1CCC(N2Cc3cn(CC(C)C#N)nc3N(Cc3ccccc3C(F)(F)F)C2=O)CC1 (stereo not drawn) [Example 43]
numeric readout: 18
//
molecule: CCN1CC(n2cc3c(n2)N(Cc2ccccc2C(F)(F)F)C(=O)N(C2CCN(c4c(C)cccc4F)CC2)C3)C1 [Example 103]
numeric readout: 351
//
molecule: Cc1cccc(F)c1N1CCC(N2Cc3cn(C)nc3N(Cc3cncnc3C(C)C)C2=O)CC1 [Example 249]
numeric readout: 69
//
molecule: COc1nccc(C(F)F)c1N1CCC(N2C(=O)N(Cc3ccccc3C3CC3)c3nn(C4CC4)cc3C2C)CC1 (single isomer, unassigned) [Example 382]
numeric readout: 21
//
molecule: Cc1cccc(F)c1N1CCC(N2Cc3nn(COCC[Si](C)(C)C)cc3N(Cc3ccccc3C(F)(F)F)C2=O)CC1 [Example 195]
numeric readout: 45
//
molecule: COc1nccc(C(F)F)c1N1CCC(N2C(=O)N(Cc3ccccc3C(F)(F)F)c3nn(C4CC4)cc3C2C)CC1 (single isomer, unassigned) [Example 358]
numeric readout: 12
//
molecule: CC1c2cn(C3CCCCO3)nc2N(Cc2ccccc2C2CC2)C(=O)N1C1CCN(c2c(F)cccc2Cl)CC1 (stereo not drawn) [Example 365]
numeric readout: 45
//
molecule: Cc1cccc(F)c1N1CCC(N2Cc3cn(C4CN(C(=O)OC5COC5)C4)nc3N(Cc3ccccc3C(F)(F)F)C2=O)CC1 [Example 139]
numeric readout: 18
//
molecule: Cc1cccc(F)c1N1CCC(N2C(=O)N(Cc3ccccc3C(F)(F)F)c3n[nH]cc3C2C)CC1 (single isomer, unassigned) [Example 316]
numeric readout: 9
//
molecule: Cc1cccc(F)c1N1CCC(N2Cc3cn(CC(C)(F)F)nc3N(Cc3ncccc3C(F)(F)F)C2=O)CC1 [Example 194]
numeric readout: 5
//
molecule: COc1ncnc(C)c1N1CCC(N2Cc3cn(C)nc3N(Cc3ccccc3C(F)(F)F)C2=O)CC1 [Example 96]
numeric readout: 492
//
molecule: Cc1cccc(F)c1N1CCC(N2Cc3cn(C4CN(S(C)(=O)=O)C4)nc3N(Cc3ccccc3C(F)(F)F)C2=O)CC1 [Example 136]
numeric readout: 163
//
molecule: Cc1cccc(F)c1N1CCC(N2Cc3cn(C4CN(C(=O)OC5(C)COC5)C4)nc3N(Cc3ccccc3C(F)(F)F)C2=O)CC1 [Example 141]
numeric readout: 21
